# EXPERIMENTAL PROTOCOL: Components of the Cytosolic LPS Sensing Pathway: Gene Identification via Genome-wide siRNA Screen
# PARTICULARS: RAW264.7 macrophages, IL-1a HTRF, actives lie on both sides, screened at 100 nM (by protocol), cells primed 5 h with Pam3CSK4 first
The whole screen tested about 53,000 sequences, of which about 3,700 (7%) were called active. The full list was thinned out, with actives kept by preference.
Use z-score to assign classes; range list: L: < -0.5; M: ≥ -0.5 and < 0.4; H: ≥ 0.4

See these solved cases before continuing.
[[record]]
sequence_string = "GGAGACAUUCACUGUCUUCTT against Ephb4"
category = "M"

[[record]]
sequence_string = "CCAUUUGAUCAAGCUUUAGTT against Spock3"
category = "M"

[[record]]
sequence_string = "CGAGGAUGACUUGAUGACCTT against Ajm1"
category = "L"

[[record]]
sequence_string = "CCUGGUACAUCUCUGUUACTT against Olfr449"
category = "H"

[[record]]
sequence_string = "GGAUGAGAACAACUCUGCUTT against Lrtm2"
category = "H"


Into which bin does this sequence go? CCGUUGGAGUCCAACCUAUTT against Ube2a
H

Into which bin does this sequence go? GGGUCUUAUGGAAGUGUUUTT against Stk3
H

Into which bin does this sequence go? GGACCUGGUUCAGGUAUCATT against Col6a3
L

Into which bin does this sequence go? GCUCAGUUUAUACCAAAAUTT against Api5
L

* * *

# EXPERIMENTAL PROTOCOL: Components of the Cytosolic LPS Sensing Pathway: Gene Identification via Genome-wide siRNA Screen
# PARTICULARS: RAW264.7 macrophages, IL-1a HTRF, actives lie on both sides, screened at 100 nM (by protocol), cells primed 5 h with Pam3CSK4 first
The campaign covered roughly 53,000 sequences. About 3,700 (7%) were called active. Many of the other results were omitted from the sample, so actives are more common in it than they were.
Note to self: z-score under -1 means yes, ties and anything higher get no.

[[record]]
sequence_string = "CCUGUCUGGACUUGUCUAATT against Ica1"
category = "yes"

[[record]]
sequence_string = "GGUCAUCGGGUAAUUAAUCTT against Rad52"
category = "no"

[[record]]
sequence_string = "CGCAACCUGUCACAUAAUATT against Bmpr2"
category = "no"

[[record]]
sequence_string = "GGAUCUUGAUCCACAUCUCTT against Padi6"
category = "yes"


--- query ---
# TODO verify z-score < -1 strictly for this sequence: GGACAACUCAGAUUGGACUTT against Adprhl2
yes

* * *

# EXPERIMENTAL PROTOCOL: Components of the Cytosolic LPS Sensing Pathway: Gene Identification via Genome-wide siRNA Screen
# PARTICULARS: RAW264.7 macrophages, IL-1a HTRF, actives lie on both sides, screened at 100 nM (by protocol), cells primed 5 h with Pam3CSK4 first
Out of some 53,000 sequences screened, about 3,700 (7%) were called active. Many of the other results were omitted from the sample, so actives are more common in it than they were.
MEASUREMENT KIND: z-score
Keep it simple and answer with nothing but the number.

Known z-score results, listed for orientation:
[[record]]
sequence_string = "GCUUGCUUCGCCUACAUUGTT against Slc46a3"
measurement_kind = "z-score"
experimental_value = -0.501

[[record]]
sequence_string = "GGAUAAAUGCCAUUUUGGATT against Cpeb1"
measurement_kind = "z-score"
experimental_value = -0.664

[[record]]
sequence_string = "GGGCAUGGGAUUUAAUUCUTT against Dnajc11"
measurement_kind = "z-score"
experimental_value = 1.54

[[record]]
sequence_string = "GGCAUGAUGUUCAUGGAUATT against Nup62"
measurement_kind = "z-score"
experimental_value = -2.04

[[record]]
sequence_string = "GGCUUAAUUGCUAGCCAAGTT against Slc7a13"
measurement_kind = "z-score"
experimental_value = 0.849


Consider the sequence shown here: GGACCAAGUAUCAUGAUGUTT against Zfp369 What is its recorded z-score?
0.222

Consider the sequence shown here: GGUCUUACCUUUUGAAAAATT against Mtbp What is its recorded z-score?
0.0999

Consider the sequence shown here: GGAAAGUUCCAAGUUACCATT against Arl13b What is its recorded z-score?
1.18

* * *

# EXPERIMENTAL PROTOCOL: Components of the Cytosolic LPS Sensing Pathway: Gene Identification via Genome-wide siRNA Screen;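 also: robust z of the log signal after scaling to non-targeting control siRNA wells of the plate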
# PARTICULARS: RAW264.7 macrophages, IL-1a HTRF, actives lie on both sides, screened at 100 nM (by protocol), cells primed 5 h with Pam3CSK4 first
Screen size: about 53,000 sequences; about 3,700 (7%) were called active.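 Rule for the calls: active = gene knockdowns whose robust z-score for IL-1 alpha signal is at least 2 or at most -2, so actives lie on both sides; inactive = the rest.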 Only a selection was taken, and actives are over-represented in it overall.
Please reply with one of these outcomes: yes (active), no (inactive)

See these solved cases before continuing.
[[record]]
sequence_string = "GGUGCAUUUUCUAGAAUCATT against Usp45"
category = "no"

[[record]]
sequence_string = "GGGAUGAAGUCCUGGAUAATT against Atp6v1g1"
category = "no"

[[record]]
sequence_string = "CCUCAUGCUAGCCUCAUGATT against Actg1"
category = "no"

[[record]]
sequence_string = "AGACUCGUACACGCAGGAATT against Ggn"
category = "no"

[[record]]
sequence_string = "GGUACUUUUAUCUUAGCUATT against Paral1"
category = "no"

[[record]]
sequence_string = "GGACCUUUCUCAACUACUATT against Edem2"
category = "no"

[[record]]
sequence_string = "GGGUUAAGCGCAAGUGUAATT against Degs2"
category = "no"

[[record]]
sequence_string = "CGUGGAGAUCAUCCACUCATT against Inf2"
category = "yes"


# fetch the recorded call for GGCUGUGCAAGAUGUUCUATT against Gpr27 here
yes

# fetch the recorded call for GGUCCUACUUACUACUGCCTT against Fam83h here
no

# fetch the recorded call for GCCCUUACUUAGGUCUAGGTT against Kctd12 here
no

# fetch the recorded call for GGCACAUUGUGGUGUCUUGTT against Pycr1 here
no

# fetch the recorded call for CCAACAAAUUCUGGUGGGATT against Ccdc84 here
no

# fetch the recorded call for GGACAUGGAUGACACUGAUTT against Tsr3 here
no

# fetch the recorded call for CCUUAUAGUCCAGUAUUUUTT against Slf2 here
yes

# fetch the recorded call for GGAAAAAGGAGGGUUUAGCTT against Tm4sf5 here
no

* * *

# EXPERIMENTAL PROTOCOL: Components of the Cytosolic LPS Sensing Pathway: Gene Identification via Genome-wide siRNA Screen;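 also: robust z of the log signal after scaling to non-targeting control siRNA wells of the plate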
# PARTICULARS: RAW264.7 macrophages, IL-1a HTRF, actives lie on both sides, screened at 100 nM (by protocol), cells primed 5 h with Pam3CSK4 first
The campaign covered roughly 53,000 sequences. About 3,700 (7%) were called active. Many of the other results were omitted from the sample, so actives are more common in it than they were.
MEASUREMENT KIND: z-score
Keep it simple and answer with nothing but the number.

[[record]]
sequence_string = "CAAUAACACUGGUGCCGACTT against Adam34l"
experimental_value = 1.73


Consider the sequence shown here: GGCUUUCCUCCAGAUAAACTT against Il6st What is its recorded z-score?
-0.856

Consider the sequence shown here: CCAAGGGUCACCUAUUUUUTT against Kcna5 What is its recorded z-score?
1.97

Consider the sequence shown here: GCUGAAGGCGACAAUGGAUTT against Ak2 What is its recorded z-score?
-0.0901

Consider the sequence shown here: GUGUCAACCUAAGCUUGGCTT against Tlx3 What is its recorded z-score?
-1.19

Consider the sequence shown here: GGCCGCCAUUUUGGCAAGATT against Fbxo27 What is its recorded z-score?
3.41

* * *

# EXPERIMENTAL PROTOCOL: Components of the Cytosolic LPS Sensing Pathway: Gene Identification via Genome-wide siRNA Screen;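 also: robust z of the log signal after scaling to non-targeting control siRNA wells of the plate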
# PARTICULARS: RAW264.7 macrophages, IL-1a HTRF, actives lie on both sides, screened at 100 nM (by protocol), cells primed 5 h with Pam3CSK4 first
The whole screen tested about 53,000 sequences, of which about 3,700 (7%) were called active.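 How the source made its calls: active means gene knockdowns whose robust z-score for IL-1 alpha signal is at least 2 or at most -2, so actives lie on both sides; inactive means the rest.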 Shown is part of a subset that was picked to be rich in actives.
Please reply with one of these outcomes: True for active, False for inactive

See these solved cases before continuing.
[[record]]
sequence_string = "CCUAGUGUGUUAAUUGUAATT against Ric1"
category = "False"

[[record]]
sequence_string = "GGGAGGAAGUGGAAGUUCUTT against Tsc22d1"
category = "False"


--- query ---
# fetch the recorded call for GCUGUUUGAAGCUGAUACCTT against Fads3 here
False

* * *

# EXPERIMENTAL PROTOCOL: Components of the Cytosolic LPS Sensing Pathway: Gene Identification via Genome-wide siRNA Screen;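 also: robust z of the log signal after scaling to non-targeting control siRNA wells of the plate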
# PARTICULARS: RAW264.7 macrophages, IL-1a HTRF, actives lie on both sides, screened at 100 nM (by protocol), cells primed 5 h with Pam3CSK4 first
The campaign covered roughly 53,000 sequences. About 3,700 (7%) were called active. The entries come from a sample that favours actives as a whole.
Note to self: z-score under 0.7 means TRUE, ties and anything higher get FALSE.

[[record]]
sequence_string = "CCUACUGGUUGAAAAUAUUTT against Tceanc2"
category = "FALSE"

[[record]]
sequence_string = "GGUGUAUCGGAACAGUGAGTT against Det1"
category = "TRUE"

[[record]]
sequence_string = "GCCAGUUAUGAGCAACACCTT against Slc46a1"
category = "TRUE"


# TODO verify z-score < 0.7 strictly for this sequence: GGAGAGAAGAUCAUUUCAATT against Ncam2
FALSE
